# Test system: JEG-3
# Test Name: Primary qHTS to identify gynecologic anti-cancer compounds using libraries of approved drugs and bioactive compounds (AID 1345084); note: % is set by controls: 0 for no effect and ±100 for the full control effect; nearly all actives have a fitted effect of over 55% in size
# Condition Context: Gynecologic cancer cell panel viability, ATPlite luminescence, 48 h; series mostly up to 57.5 µM
Inconclusive results are not listed. Calls of active or inactive are those of the source. Calls come from the whole dose curve; as a rule, active = well fitted cell-killing curve with a large enough effect; inconclusive = small, poorly fitted or top-dose-only effect, or effect the other way; inactive = flat fitted curve, though single readings scatter.
Outcome Measure: outcome

Observe how each entry below is paired with its result.
• CCC(C)(C)c1ccc(CC(C)CN2C[C@@H](C)O[C@@H](C)C2)cc1 (stereo not given in full) = inactive
• COC(c1ccccc1)(c1ccccc1)[C@H](Oc1nc(C)cc(C)n1)C(=O)O = inactive
• CC[C@H](C)C(=O)O[C@H]1C[C@@H](C)C=C2C=C[C@H](C)[C@H](CC[C@@H]3C[C@@H](O)CC(=O)O3)[C@H]21 = inactive
• N=C(N)c1ccc(OCCCCCOc2ccc(C(=N)N)cc2)cc1 = inactive
• COc1ccccc1OCC(O)COC(N)=O (stereo not given) = inactive

Report outcome for O[C@@H](CNC[C@H](O)[C@H]1CCc2cc(F)ccc2O1)[C@@H]1CCc2cc(F)ccc2O1 tested on JEG-3.
inactive

For JEG-3, provide outcome of CC(C)OC(=O)OCOP(=O)(CO[C@H](C)Cn1cnc2c(N)ncnc21)OCOC(=O)OC(C)C please.
inactive

Notebook: pull reported outcome for JEG-3, entry CC1=NN(c2ccccc2)C(=O)C1
inactive

Recorded outcome for Nc1nc(N)nc(-c2cc(Cl)ccc2Cl)n1 with JEG-3, please?
inactive

Lab note: need outcome with JEG-3 for entry COc1ccc2c(c1)c(CC(=O)OCC(=O)O)c(C)n2C(=O)c1ccc(Cl)cc1 , please look it up.
inactive

====

# System Tested: Thioredoxin reductase 1, cytoplasmic (Rattus norvegicus) (UniProt O89049)
# Sequence (O89049 whole entry, looked up): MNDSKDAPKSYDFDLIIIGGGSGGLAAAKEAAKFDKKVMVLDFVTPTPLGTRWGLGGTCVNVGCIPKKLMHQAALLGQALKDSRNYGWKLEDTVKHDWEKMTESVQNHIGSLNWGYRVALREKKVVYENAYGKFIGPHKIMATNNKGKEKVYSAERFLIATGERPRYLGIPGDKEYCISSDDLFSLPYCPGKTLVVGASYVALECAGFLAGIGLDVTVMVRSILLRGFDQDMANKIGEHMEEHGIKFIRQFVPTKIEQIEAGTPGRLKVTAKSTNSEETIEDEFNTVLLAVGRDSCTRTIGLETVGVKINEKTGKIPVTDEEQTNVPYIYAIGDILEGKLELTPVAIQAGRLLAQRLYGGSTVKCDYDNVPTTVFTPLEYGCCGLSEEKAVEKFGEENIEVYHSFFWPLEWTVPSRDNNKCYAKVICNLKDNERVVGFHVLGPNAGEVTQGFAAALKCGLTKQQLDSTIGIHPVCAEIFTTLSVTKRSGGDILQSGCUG
# Test Name: qHTS Assay for Substrates of Mammalian Selenoprotein Thioredoxin Reductase 1 (TrxR1) (AID 488772);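 note: NADPH fluorescence in the first read after selenite addition and not the 8 min delta; 0% is about no effect; a drop in NADPH fluorescence below the no-compound background marks a TrxR1 substrate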
# Condition Context: purified TrxR1, NADPH consumption substrate assay; series mostly up to 57.1 µM
Records with an inconclusive call do not appear. Activity calls are given as the source filed them. The call rests on the fitted dose curve; in most records, active means well fitted curve in the direction sought with a large enough effect; inconclusive means small, poorly fitted or top-dose-only effect, or another doubt; inactive means no such curve, though single readings can be large or run the other way.
Outcome Measure: outcome

* CCN(CC)CC#CCOC(=O)C(O)(c1ccccc1)C1CCCCC1 (configuration not stated) | inactive
* Cc1ccc(S(=O)(=O)N[C@@H](Cc2ccccc2)C(=O)CCl)cc1 | inactive
* OCc1ccc(-c2nn(Cc3ccccc3)c3ccccc23)o1 | inactive
* CCN(CC)CCn1c(=O)c(Cc2ccc(OC)cc2)nc2ccccc21 | inactive
* CC1=C(C(=O)O)N2C(=O)[C@@H](NC(=O)C(N)c3ccccc3)[C@H]2SC1 (some centres not stated) | inactive

Please state recorded outcome (tested on Thioredoxin reductase 1, cytoplasmic (Rattus norvegicus) (UniProt O89049)) of CCN1CCCC1CNC(=O)c1cc(S(N)(=O)=O)ccc1OC (configuration not stated)
inactive

Missing value: outcome, Thioredoxin reductase 1, cytoplasmic (Rattus norvegicus) (UniProt O89049), entry CC(=O)[C@H]1CC[C@H]2[C@@H]3CCC4=CC(=O)CC[C@]4(C)[C@H]3CC[C@]12C . Fill in?
inactive

====

Listing of entries alongside the reported growth, % of control.
# Test Name: qHTS profiling of the MIPE4 collection as inhibitors of Plasmodium falciparum (HB3) proliferation (AID 743347);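 note: plate controls were DMSO vehicle wells for no effect and artemisinin wells for full effect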
# Condition Context: P. falciparum HB3 in erythrocytes, SYBR Green DNA, 72 h; at 28.5 µM (top of the series) unless noted
# Procedure: Plasmodium falciparum is a virulent malarial parasite that kills 1-2 million people worldwide each year. […] Because mature erythrocytes lack DNA, only Plasmodium-derived DNA is detected. The SYBR Green viability assay was adapted from a method described previously (Plouffe et al., 2008). […] The following morning, fluorescence intensity at 485(14) nm excitation and 535(25) nm emission wavelengths was measured on an EnVision (Perkin Elmer) plate reader. […]
Your answer is read as %, so omit the unit and give the number.

Please review the following examples before continuing.
- CC(C)Cn1cnc2c(N)nc3ccccc3c21: 58.5
- C[C@@H](NCCCc1cccc(C(F)(F)F)c1)c1cccc2ccccc12: 4.3
- NC(=O)c1cccc(N)c1: 54.9

GET /values?readout=growth, % of control&item= Cc1oc(=O)oc1CN1CCN(c2cc3c(cc2F)c(=O)c(C(=O)O)c2n3C(C)S2)CC1 (configuration not stated)
24.3

May I ask what growth, % of control has been recorded for CC1CC2C3CCC4=CC(=O)C=C[C@]4(C)[C@@]3(F)[C@@H](O)C[C@]2(C)[C@@]1(O)C(=O)CO (some centres not stated) ?
102

Would you mind telling me what growth, % of control value was observed for O=S(=O)(O)CCS ?
66.6

Look at this molecule and give its reported growth, % of control. COC(=O)Nc1nc2ccc(Sc3ccccc3)cc2[nH]1
102

What value of growth, % of control has been reported for the following molecule? NC(=O)c1cccnc1
105

Recorded growth, % of control for CC(C(=O)O)c1ccc2c(c1)CC(=O)c1ccccc1S2 (configuration not stated) , please?
97.8

Item COc1cc(NS(=O)(=O)c2ccc(N)cc2)nc(OC)n1 has what recorded growth, % of control?
91

Given the entry COc1ccc2cc3[n+](cc2c1OC)CCc1cc2c(cc1-3)OCO2 , report its measured growth, % of control.
4.47

Can you look up the measured growth, % of control of CNC1CCCN(c2c(F)cc3c(=O)c(C(=O)O)cn(C4CC4)c3c2OC)C1 (configuration not stated) for me?
22.8

====

# Test Name: Quantitative High-Throughput drug screen in 47 multiple myeloma cell lines against the NCATS MIPE library collection: KMS34_JCRB cell viability assay (AID 1918985); note: nearly all actives have a fitted effect of over 40% in size
# Condition Context: KMS34 myeloma viability, CellTiter-Glo ATP luminescence, 48 h; series mostly up to 45.8 µM
Results filed as inconclusive are left out. Active and inactive are the calls of the source. Calls follow the shape of the dose curve; as a rule, active = well fitted cell-killing curve with a large enough effect; inconclusive = small, poorly fitted or top-dose-only effect, or effect the other way; inactive = no such curve, though single readings can be large or run the other way.
Return exactly one item of active, inactive

A selection of reference data follows.
• CN(C)CCc1c[nH]c2ccc(CS(=O)(=O)N3CCCC3)cc12 = inactive
• C[C@]12C=CC(=O)C=C1CC[C@@H]1[C@@H]2C(=O)C[C@@]2(C)[C@H]1CC[C@]2(O)C(=O)CO = inactive
• COC(=O)Nc1nc2ccc(Sc3ccccc3)cc2[nH]1 = active
• CCCN[C@H]1CCc2nc(N)sc2C1 = inactive

Dear colleague, could you share the recorded outcome for NC(=O)N1c2ccccc2CC(=O)c2ccccc21 when you have a moment?
inactive

Which outcome did this test record for the molecule O=C(O)C1CCCN(CCC=C(c2ccccc2)c2ccccc2)C1 (configuration not stated) ?
inactive

Just curious, what result did O=C(O)c1cc(=O)[nH]c(=O)[nH]1 get here?
inactive

Status in this test for C[C@@H](NCCCc1cccc(C(F)(F)F)c1)c1cccc2ccccc12 ?
inactive

Hi team, can someone confirm the assay call for Cc1nnc(NS(=O)(=O)c2ccc(N)cc2)s1 ?
active

====

# Test Name: qHTS of pediatric cancer cell lines to identify multiple opportunities for drug repurposing: Primary screen for NB1643 cells (AID 1347099);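 note: plate controls were DMSO neutral control for no effect and bortezomib positive control for full effect; nearly all actives have a fitted effect of over 50% in size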
# Condition Context: NB1643 neuroblastoma viability, CellTiter-Glo luminescence, 48 h; series mostly up to 46 µM
Inconclusive results are not listed. The source made the active and inactive calls. Calls follow the shape of the dose curve; as a rule, active = well fitted cell-killing curve with a large enough effect; inconclusive = small, poorly fitted or top-dose-only effect; inactive = no such curve, though single readings can be large or run the other way.
Outcome Measure: outcome

Solved entries (count: 4):
* CC(=O)CC(c1ccccc1)c1c(O)c2ccccc2oc1=O (stereo not given) | inactive
* CCn1cc(C(=O)O)c(=O)c2cc(F)c(N3CCNCC3)cc21 | inactive
* C[C@@H]1CN(c2c(F)c(N)c3c(=O)c(C(=O)O)cn(C4CC4)c3c2F)C[C@H](C)N1 | inactive
* NC(=O)c1cccc(N)c1 | inactive

Now let's try a different one.
Which outcome is listed for CCC(=O)O[C@]1(C(=O)CCl)[C@@H](C)C[C@H]2[C@@H]3CCC4=CC(=O)C=C[C@]4(C)[C@@]3(F)[C@@H](O)C[C@@]21C ?
inactive

====

# Test Name: Drug repurposing screens with cells derived from glioblastoma tumor samples (AID 1345199); note: % is set by controls: 0 for no effect and ±100 for the full control effect; nearly all actives have a fitted effect of over 40% in size
# Condition Context: GBM patient neurospheres viability, ATP luminescence, 48 h; at 45.9 µM (top of the series); tumour line B
Inconclusive results are not listed. The source made the active and inactive calls. The call rests on the fitted dose curve; in most records, active means well fitted inhibition curve with a large enough effect; inconclusive means small, poorly fitted or top-dose-only effect; inactive means flat fitted curve, though single readings scatter.
// reported activity, negative = cell killing per item

Here is how some compounds turned out for activity, negative = cell killing.
• CCOCC(O)COc1ccc(NC(=O)CC[S+](C)C)cc1 (stereo unspecified) = -7.04% (inactive)
• S=P(N1CC1)(N1CC1)N1CC1 = -13.6% (inactive)
• O=C(N[C@H](CO)[C@H](O)c1ccc([N+](=O)[O-])cc1)C(Cl)Cl = -13.1% (inactive)
• COc1c(N2CCNC(C)C2)c(F)cc2c(=O)c(C(=O)O)cn(C3CC3)c12 (stereo unspecified) = -10.7% (inactive)
• COc1ccc2c(c1)c(CC(=O)OCC(=O)O)c(C)n2C(=O)c1ccc(Cl)cc1 = -1.02% (inactive)

Please give the measured activity, negative = cell killing for this compound: CCOc1cc(N)c(Cl)cc1C(=O)NCC1CN(Cc2ccc(F)cc2)CCO1 (stereo unspecified)
-18.6% (inactive)

Suppose we examine the compound O=C(O)CSCC(=O)NC1CCSC1=O (stereo unspecified) ; what activity, negative = cell killing value has been reported?
-7.24% (inactive)

State the recorded activity, negative = cell killing for this entry: CCN[C@H]1C[C@H](C)S(=O)(=O)c2sc(S(N)(=O)=O)cc21
-1.09% (inactive)

Look up activity, negative = cell killing: CCOC(=O)[C@H](CCc1ccccc1)N[C@H]1CS[C@H](c2cccs2)CN(CC(=O)O)C1=O
-5.27% (inactive)

Recorded activity, negative = cell killing for CNS(=O)(=O)Cc1ccc2[nH]cc(CCN(C)C)c2c1 , please?
2.54% (inactive)

Which activity, negative = cell killing reading was recorded for the compound N[C@@H](C(=O)N[C@@H]1C(=O)N2C(C(=O)O)=C(Cl)CS[C@H]12)c1ccccc1 ?
-8.97% (inactive)

Where do the numbers come from? From PubChem BioAssay (NCATS).
